Target: Protein-tyrosine kinase 6 (Homo sapiens, UniProt Q13882)
Sequence (Q13882 whole entry): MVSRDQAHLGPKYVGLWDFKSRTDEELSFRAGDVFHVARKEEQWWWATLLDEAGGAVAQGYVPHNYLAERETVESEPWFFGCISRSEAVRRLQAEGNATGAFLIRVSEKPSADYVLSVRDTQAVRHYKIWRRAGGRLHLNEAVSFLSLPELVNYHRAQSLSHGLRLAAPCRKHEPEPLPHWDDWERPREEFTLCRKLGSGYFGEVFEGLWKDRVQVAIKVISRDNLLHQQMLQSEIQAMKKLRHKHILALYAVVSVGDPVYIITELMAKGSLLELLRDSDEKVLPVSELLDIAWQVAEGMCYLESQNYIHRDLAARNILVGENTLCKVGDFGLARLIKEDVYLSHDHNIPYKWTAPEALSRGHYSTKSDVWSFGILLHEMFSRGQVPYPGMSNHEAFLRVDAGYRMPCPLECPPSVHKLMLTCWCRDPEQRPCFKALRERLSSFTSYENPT
Assay: Inhibition of PTK6 (unknown origin) expressed in HEK293 cells assessed as decrease in tyrosine phosphorylation by chemiluminescence assay
Type: cell-based
The following compounds are shown together with reported IC50 values.
Give the value in µM but do not write µM after it.

Some solved cases for reference:
O=c1[nH]c2ccc(/N=C/c3c(O)c(Br)cc(Br)c3Br)cc2[nH]1 :: 11.8
COc1cc(Br)c(Br)c(/C=N/c2ccc3[nH]ccc3c2)c1O :: 3.49
CCOc1cc(Br)cc(/C=N/c2ccc3[nH]c(=O)[nH]c3c2)c1O :: 23.5

Exercise: Let me know recorded IC50 for N#C/C(=C\c1c[nH]c2ccccc12)C(=O)c1ccc(O)c(O)c1 , thanks.
Key: 53.2

Exercise: Let me know recorded IC50 for CCOc1cc(Cl)cc(/C=N/c2ccc3[nH]c(=O)[nH]c3c2)c1O , thanks.
Key: 51.2

Exercise: Let me know recorded IC50 for COc1ccc(Br)c(/C=N/c2ccc3[nH]c(=O)[nH]c3c2)c1O , thanks.
Key: 16.6

Exercise: Let me know recorded IC50 for O=c1[nH]c2ccc(/N=C/c3cc(Br)cc(Br)c3O)cc2[nH]1 , thanks.
Key: 49

Exercise: Let me know recorded IC50 for CCOc1cc(Br)c(Br)c(/C=N/c2ccc3[nH]ccc3c2)c1O , thanks.
Key: 7.58

Exercise: Let me know recorded IC50 for COc1cc(I)cc(/C=N/c2ccc3[nH]c(=O)[nH]c3c2)c1O , thanks.
Key: 58.1

Exercise: Let me know recorded IC50 for CCOc1cc(Br)c(Br)c(/C=N/c2ccc3[nH]cnc3c2)c1O , thanks.
Key: 4.71

Exercise: Let me know recorded IC50 for COc1cc(Cl)cc(/C=N/c2ccc3[nH]c(=O)[nH]c3c2)c1O , thanks.
Key: 74
